Cited source for all entries: the supplement of paper PMC12669032

# System: Eubacterium rectale
# testDescription: growth AUC relative to DMSO control (median of replicates) (fraction); higher = more growth (less inhibition), active = hit call of the paper
# assayContext: 20 µM; 24 h
testReadout: growth AUC
Respond numerically, and do not add a unit to the figure.

Tell me the measured growth AUC of C#CCC1=C(C)C(OC(=O)C2C(C=C(C)C)C2(C)C)CC1=O (stereo not drawn) , please. 1.03

# repeat for Cc1ccc(NC(=O)N(C)C)cc1Cl 0.965

# repeat for O=[N+]([O-])c1c(Cl)c(Cl)cc(Cl)c1Cl 0.954

# repeat for CC(C)OC(=O)Nc1cccc(Cl)c1 1.07

# repeat for CCc1cccc(C)c1N(C(=O)CCl)[C@@H](C)COC 1.06

# repeat for CC1(C)OC(c2ccco2)CN1C(=O)C(Cl)Cl (stereo not drawn) 0.803

# repeat for CC(C)OC(=O)C(O)(c1ccc(Br)cc1)c1ccc(Br)cc1 0.912

# repeat for COC(=O)COc1cc(Cl)c(Cl)cc1Cl 0.914

* * *

Would you kindly list growth AUC for each of these molecules?
# Test system: Bacteroides uniformis
# testDescription: growth AUC relative to DMSO control (median of replicates) (fraction); higher = more growth (less inhibition), active = hit call of the paper
# assayContext: 20 µM; 24 h
Respond numerically, and do not add a unit to the figure.

Tell me the measured growth AUC of Clc1ccc(C(c2ccc(Cl)cc2)C(Cl)Cl)cc1 , please. 0.984

# repeat for CC1(C)CN=C(NN=C(/C=C/c2ccc(C(F)(F)F)cc2)/C=C/c2ccc(C(F)(F)F)cc2)NC1 0.991

# repeat for Nc1nc(N)nc(N)n1 0.972

# repeat for O=C(O)C(Cl)Cl 1.01

* * *

# Tested on: Bacteroides clarus
# testDescription: growth AUC relative to DMSO control (median of replicates) (fraction); higher = more growth (less inhibition), active = hit call of the paper
# assayContext: 20 µM; 24 h
Would you kindly list growth AUC for each of these molecules?
Respond numerically, and do not add a unit to the figure.

Tell me the measured growth AUC of CCCOc1nn(C(=O)[N-]S(=O)(=O)c2ccccc2C(=O)OC)c(=O)n1C.[Na+] , please. 0.979

# repeat for CCN(CC)N=O 1

# repeat for CSc1nc(N=[N+]=[N-])nc(NC(C)C)n1 0.993

# repeat for Nc1nc(N)nc(N)n1 0.881

* * *

# System: Parabacteroides merdae
# testDescription: growth AUC relative to DMSO control (median of replicates) (fraction); higher = more growth (less inhibition), active = hit call of the paper
# assayContext: 20 µM; 24 h
Would you kindly list growth AUC for each of these molecules?
Respond numerically, and do not add a unit to the figure.

Tell me the measured growth AUC of ClC1=C(Cl)C2(Cl)[C@H]3[C@H]4O[C@H]4[C@H](Cl)[C@H]3C1(Cl)C2(Cl)Cl (single isomer, unassigned; isomer a) , please. 0.98

# repeat for CCN(CC)C(=S)[S-].O.O.O.[Na+] 0.873

# repeat for COC(=O)c1ccccc1CS(=O)(=O)NC(=O)Nc1nc(OC)cc(OC)n1 1

# repeat for OC(Cc1ccccc1Cl)(Cn1cncn1)C1(Cl)CC1 (stereo not given) 0.977

# repeat for C[C@@H](Oc1ccc(Oc2ccc(C(F)(F)F)cn2)cc1)C(=O)O 1.07

* * *

# System: Bifidobacterium longum subsp. longum
# testDescription: growth AUC relative to DMSO control (median of replicates) (fraction); higher = more growth (less inhibition), active = hit call of the paper
# assayContext: 20 µM; 24 h
Would you kindly list growth AUC for each of these molecules?
Respond numerically, and do not add a unit to the figure.

Tell me the measured growth AUC of CCOP(=S)(Oc1ccc([N+](=O)[O-])cc1)c1ccccc1 (stereo unspecified) , please. 1.02

# repeat for O=C(O)c1c(Cl)ccc2cc(Cl)cnc12 0.961

# repeat for CN=C=S 1.05

# repeat for c1ccc(-c2ccccc2)cc1 1.03

# repeat for O=C(NC(=O)c1ccccc1Cl)Nc1ccc(OC(F)(F)F)cc1 0.986

# repeat for CCOc1nc(NC)nc(NC(=O)NS(=O)(=O)c2ccccc2C(=O)OC)n1 0.967

# repeat for Cc1cc(Cl)ccc1N=CN(C)C.Cl 1.03

# repeat for Cc1nc(N(C)C=O)nc(OC(=O)N(C)C)c1C 1

# repeat for CCCN(CC)CC1COC2(CCC(C(C)(C)C)CC2)O1 (stereo unspecified) 0.79

# repeat for CC(=NCc1ccc(Cl)nc1)NC#N 1.02

# repeat for O=C1CCc2cccc3c2N1CC3 1.03

# repeat for C[C@@H](Oc1ccc(Oc2cnc3cc(Cl)ccc3n2)cc1)C(=O)O 0.964

# repeat for O=C(Nc1ccccc1)Nc1ccnc(Cl)c1 0.959

# repeat for CCCSC(=O)N(CCC)CCC 1.04

# repeat for CN(C)C(CSS(=O)(=O)[O-])CSS(=O)(=O)[O-].[Na+].[Na+] 1.25

# repeat for O=C1C=C(N(Cc2ccc(Cl)nc2)CC(F)F)CO1 1.01

# repeat for CC1(C)C(C=C(Cl)Cl)C1C(=O)OC(C#N)c1cccc(Oc2ccccc2)c1 (mixture of isomers) 0.984

# repeat for N#Cc1c[nH]cc1-c1cccc2c1OC(F)(F)O2 0.91

# repeat for CC(C)(C)c1ccc(CSc2cnn(C(C)(C)C)c(=O)c2Cl)cc1 0.97

# repeat for CCOP(=S)(OCC)SCSP(=S)(OCC)OCC 1.03

# repeat for CC(Oc1cc(Cl)c(Cl)cc1Cl)C(=O)O (stereo unspecified) 0.787

# repeat for CCS(=O)c1c(C#N)nn(-c2c(Cl)cc(C(F)(F)F)cc2Cl)c1N (stereo unspecified) 1.01

# repeat for O=C(NC(=O)c1c(F)cccc1F)Nc1ccc(OC(F)(F)C(F)OC(F)(F)F)c(Cl)c1 (stereo unspecified) 1

# repeat for Cc1cc(Cl)ccc1N=CN(C)C 0.981

# repeat for Oc1c(Cl)ccc(Cl)c1Cl 1.02

# repeat for Clc1ccc(C2(Cn3cncn3)OCCO2)c(Cl)c1 1.01

# repeat for COC(=O)c1ccccc1CS(=O)(=O)NC(=O)Nc1nc(OC)cc(OC)n1 1.05

# repeat for O=C(NC(=O)c1c(F)cccc1F)Nc1ccc(Cl)c(Oc2ncc(C(F)(F)F)cc2Cl)c1 0.917

# repeat for O=C(O)COc1nc(Cl)c(Cl)cc1Cl 1.04

# repeat for CCC1(C(=O)NC(C)c2ccc(Cl)cc2)C(C)C1(Cl)Cl (stereo unspecified) 0.969

# repeat for CCCCCCCCCc1ccc(O)cc1 0.929

* * *

Would you kindly list growth AUC for each of these compounds?
# Test system: Escherichia coli IAI1
# testDescription: growth AUC relative to DMSO control (median of replicates) (fraction); higher = more growth (less inhibition), active = hit call of the paper
# assayContext: 20 µM; 24 h
Respond numerically, and do not add a unit to the figure.

I'm curious: which growth AUC was measured for CCCN(CCC)C(=O)SCc1ccccc1 tested on Escherichia coli IAI1? 0.985

# repeat for OC(c1ccc(Cl)cc1)(c1ccc(Cl)cc1)C(Cl)(Cl)Cl 1.03

# repeat for COc1cccc(C(=O)NN(C(=O)c2cc(C)cc(C)c2)C(C)(C)C)c1C 0.97

# repeat for c1coc(-c2nc3ccccc3[nH]2)c1 0.986

# repeat for CCCCOC(=O)c1ccccc1C(=O)OCCCC 0.962

# repeat for CCCN(CC1CC1)c1c([N+](=O)[O-])cc(C(F)(F)F)cc1[N+](=O)[O-] 1.03

# repeat for CC(Oc1ccc(Oc2ccc(Cl)cc2Cl)cc1)C(=O)O (racemic) 1.02

# repeat for ClC1C(Cl)C(Cl)C(Cl)C(Cl)C1Cl (mixture of isomers) 0.981

# repeat for Nc1c([N+](=O)[O-])ccc(Oc2ccccc2)c1Cl 1.01

# repeat for O=C(O)C(F)(F)C(F)(F)C(F)(F)C(F)(F)C(F)(F)C(F)(F)F 1

# repeat for CS(=O)(=O)c1ccc(C(=O)C2C(=O)CCCC2=O)c([N+](=O)[O-])c1 0.985

# repeat for CC(C)OC(=O)C(C(=O)OC(C)C)=C1SCCS1 0.988

# repeat for O=c1ccc(=O)[nH][nH]1 0.976

# repeat for CN/C(=N\[N+](=O)[O-])NCc1cnc(Cl)s1 1

# repeat for C=CC1(C)OC(=O)N(c2cc(Cl)cc(Cl)c2)C1=O (stereo not drawn) 0.967

# repeat for CCOP(=S)(OCC)SCSCC 0.956

# repeat for C[C@@H](Oc1ccc(Oc2nc3ccc(Cl)cc3o2)cc1)C(=O)O 1.02

# repeat for CCOP(=S)(Oc1cnc(C(C)(C)C)nc1)OC(C)C (stereo not drawn) 0.985

# repeat for CNC(=O)O/N=C(\C)C(C)S(C)(=O)=O (stereo not drawn) 0.979

# repeat for COc1ccc(/C(=C/C(=O)N2CCOCC2)c2ccc(F)cc2)cc1OC 1.01

# repeat for COC(=O)c1ccccc1CS(=O)(=O)NC(=O)Nc1nc(OC)cc(OC)n1 0.978

# repeat for COC(=O)NS(=O)(=O)c1ccc(N)cc1 0.975

# repeat for CCOP(=O)(OCC)Oc1ccc(S(C)(=O)=O)cc1 0.977

# repeat for CNC(=O)O/N=C(\C)C(C)S(C)=O (stereo not drawn) 0.987

# repeat for O=C(NC(=O)c1c(F)cccc1F)Nc1ccc(Oc2ccc(C(F)(F)F)cc2Cl)cc1F 1.03

# repeat for CCNc1nc(NC(C)(C)C)nc(SC)n1 0.986

# repeat for CCCN(CC)CC1COC2(CCC(C(C)(C)C)CC2)O1 (stereo not drawn) 0.959

# repeat for CCCCN(CCCC)N=O 1
